Target: T1, human LAG3, full length, stably expressed on cells (human, UniProt P18627 23-525)
T1 construct: whole, on cells; also called CHOK1-human LAG3
T1 sequence (looked up): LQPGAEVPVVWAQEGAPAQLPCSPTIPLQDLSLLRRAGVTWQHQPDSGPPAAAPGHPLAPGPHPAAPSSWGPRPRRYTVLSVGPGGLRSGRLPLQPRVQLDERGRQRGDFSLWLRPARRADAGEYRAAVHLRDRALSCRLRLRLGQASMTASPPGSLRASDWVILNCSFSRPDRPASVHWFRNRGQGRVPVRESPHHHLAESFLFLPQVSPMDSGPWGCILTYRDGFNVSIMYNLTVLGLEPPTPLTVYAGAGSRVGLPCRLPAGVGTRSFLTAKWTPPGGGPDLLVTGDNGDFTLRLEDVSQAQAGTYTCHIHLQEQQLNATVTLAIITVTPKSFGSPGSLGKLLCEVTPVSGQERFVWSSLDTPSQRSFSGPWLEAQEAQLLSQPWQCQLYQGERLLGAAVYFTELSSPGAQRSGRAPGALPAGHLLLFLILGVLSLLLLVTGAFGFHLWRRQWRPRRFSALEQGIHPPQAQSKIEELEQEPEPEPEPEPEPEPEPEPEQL
Assay: FACS on 293F cells stably expressing human LAG3
Overview of reported TOP MFI across a group of binders:

[[record]]
binder = "hu023.11 (antibody, human IgG4, V domains shown, humanized from 023c) VH: QVQLVQSGPELKKPGASVKVSCKASGYTFTESPMNWVRQAPGQGFEWMGIIYTDTGEPTYAEEFKGRFVFSLDTSVSTAYLQISSLKAEDTAVYFCVSDYGSILYWYFDVWGQGTLVTVSS VL: DIQMTQSPSSLSASVGDRVTITCKASQDVSTAVAWYQQKPGKSPKLLIYSASYRYTGVPSRFSGSGSGTDFTFTISSLQPEDFATYYCQQHYNAPPTFGQGTKLEIK"
outcome_measure = "TOP MFI"
result = 3140

[[record]]
binder = "hu023.13 (antibody, human IgG4, V domains shown, humanized from 023c) VH: QIQLVQSGPELKKPGASVKISCKASGYTFTESPMNWVRQAPGQGFEWMGIIYTDTGEPTYAEEFKGRFVFSLDTSVSTAYLQISSLKAEDTAVYFCVSDYGSILYWYFDVWGQGTLVTVSS VL: DIQMTQSPSSLSASVGDRVTITCKASQDVSTAVAWYQQKPGKAPKLLIYSASYRYTGVPSRFSGSGSGTDFTLTISSLQPEDFATYYCQQHYNAPPTFGQGTKLEIK"
outcome_measure = "TOP MFI"
result = 3100

[[record]]
binder = "023c (antibody, human IgG4, V domains shown, human IgG4 S228P / kappa chimeric antibody; also called chimeric antibody 023; ES005-023c; not shown: human kappa light chain constant region (pcDNA3.4-hIgGk vector)) VH: QIQLVQSGPVLKKPGETVKISCKASGYTFTESPMNWVKQAPGRGFKWMGMIYTDTGEPTYAEEFKGRFAFSLETSASTAYLQINNLKSEDTATYFCVSDYGSILYWYFDVWGTGTTVTVSS VL: DIVMTQSHKFMSTSVGDRVSITCKASQDVSTAVAWYQQTPGQSPKLLIYSASYRYTGVPDRFTGSGSGTDFTFTISSVQAEDLAVYYCQQHYNSPPTFGAGTKLELK"
outcome_measure = "TOP MFI"
result = 3430


Now examine the next entry.
Briefly, TOP MFI measured for hu023.04 (antibody, human IgG4, V domains shown, humanized from 023c) VH: QVQLVQSGAEVKKPGASVKVSCKASGYTFTESPMNWVRQAPGQGFEWMGIIYTDTGEPTYAEEFKGRVTMTRDTSTSTVYMELSSLRSEDTAVYFCASDYGSILYWYFDVWGQGTLVTVSS VL: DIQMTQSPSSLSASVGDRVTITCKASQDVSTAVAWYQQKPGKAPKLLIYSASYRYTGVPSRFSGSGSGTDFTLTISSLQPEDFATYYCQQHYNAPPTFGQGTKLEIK : 3180
